Ref: patent US20230357447A1

Reported values of CD28 scFv signal in presence of CD28 for individual entries
target of assay: T1, Anti-CD28 scFv (VH-linker 1-VL) (biotinylated (site not stated))
T1 construct: biotinylated and captured on neutravidin coated plates in the phage ELISA
T1 sequence (scFv, as listed by the source): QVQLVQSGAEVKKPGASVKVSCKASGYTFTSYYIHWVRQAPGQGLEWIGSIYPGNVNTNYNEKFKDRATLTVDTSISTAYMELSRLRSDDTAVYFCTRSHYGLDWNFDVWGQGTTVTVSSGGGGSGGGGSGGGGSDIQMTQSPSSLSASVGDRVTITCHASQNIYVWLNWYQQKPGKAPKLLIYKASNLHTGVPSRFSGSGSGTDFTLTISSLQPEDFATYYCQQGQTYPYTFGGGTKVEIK
protocol text: phage binding ELISA on captured anti-CD28 scFv, wells pre-incubated with soluble CD28 (competitor);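 also: crude clonal phage supernatants added without washing, bound phage detected by HRP-conjugated anti-M13 antibody, control wells held blocking buffer alone instead of CD28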
Lab note: record the figure alone, no unit after it.

binder: MHWCPRDLWYECFA [Phage-369]
endpoint result: 0.108

Request: Fill blank: measured CD28 scFv signal in presence of CD28 of the binder MDWCPRDMWTSCFN [Phage-404] is ____.
Result: 0.179

Request: Same for MDWCPRNLWHECFA [Phage-342]
Result: 0.175

Request: Same for MFWCPITLWNECFN [Phage-326]
Result: 0.143
